Values were extracted from paper PMC4652773.

Target: T1, BsaWI E128A&W262A (UniProt Q6UQ65 1-272, E128A;W262A)
T1 sequence: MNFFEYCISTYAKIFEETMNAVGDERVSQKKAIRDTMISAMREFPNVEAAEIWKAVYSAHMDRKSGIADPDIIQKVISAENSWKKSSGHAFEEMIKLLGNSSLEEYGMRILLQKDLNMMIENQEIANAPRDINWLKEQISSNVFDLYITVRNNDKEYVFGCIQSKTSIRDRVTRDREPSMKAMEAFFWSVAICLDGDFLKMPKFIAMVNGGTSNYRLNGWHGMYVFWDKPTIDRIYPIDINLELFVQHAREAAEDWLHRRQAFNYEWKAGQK
Test: EMSA; 5 mM Ca2+; EMSA: 40 mM Tris-acetate pH 8.3, 0.1 mg/ml BSA, 10% glycerol, 5 mM CaCl2 or 0.1 mM EDTA, 1 nM DNA, room temperature, 15 min
Conditions: protein: recombinant; chain copies: 2; label: 33P; blunt
Parameter: pKd
// returns pKd (minus log10 of molar concentration), number only

Requested read-out: pKd. Entry: SP (dsDNA) DNA 1: GCCTTTCGGTTTACCGGTGTCATTCCGCTG DNA 2: CAGCGGAATGACACCGGTAAACCGAAAGGC
8.57
